# experimentalTarget: Voltage-gated inwardly rectifying potassium channel KCNH2 (Homo sapiens) (UniProt Q12809)
# Sequence (Q12809 whole entry, looked up): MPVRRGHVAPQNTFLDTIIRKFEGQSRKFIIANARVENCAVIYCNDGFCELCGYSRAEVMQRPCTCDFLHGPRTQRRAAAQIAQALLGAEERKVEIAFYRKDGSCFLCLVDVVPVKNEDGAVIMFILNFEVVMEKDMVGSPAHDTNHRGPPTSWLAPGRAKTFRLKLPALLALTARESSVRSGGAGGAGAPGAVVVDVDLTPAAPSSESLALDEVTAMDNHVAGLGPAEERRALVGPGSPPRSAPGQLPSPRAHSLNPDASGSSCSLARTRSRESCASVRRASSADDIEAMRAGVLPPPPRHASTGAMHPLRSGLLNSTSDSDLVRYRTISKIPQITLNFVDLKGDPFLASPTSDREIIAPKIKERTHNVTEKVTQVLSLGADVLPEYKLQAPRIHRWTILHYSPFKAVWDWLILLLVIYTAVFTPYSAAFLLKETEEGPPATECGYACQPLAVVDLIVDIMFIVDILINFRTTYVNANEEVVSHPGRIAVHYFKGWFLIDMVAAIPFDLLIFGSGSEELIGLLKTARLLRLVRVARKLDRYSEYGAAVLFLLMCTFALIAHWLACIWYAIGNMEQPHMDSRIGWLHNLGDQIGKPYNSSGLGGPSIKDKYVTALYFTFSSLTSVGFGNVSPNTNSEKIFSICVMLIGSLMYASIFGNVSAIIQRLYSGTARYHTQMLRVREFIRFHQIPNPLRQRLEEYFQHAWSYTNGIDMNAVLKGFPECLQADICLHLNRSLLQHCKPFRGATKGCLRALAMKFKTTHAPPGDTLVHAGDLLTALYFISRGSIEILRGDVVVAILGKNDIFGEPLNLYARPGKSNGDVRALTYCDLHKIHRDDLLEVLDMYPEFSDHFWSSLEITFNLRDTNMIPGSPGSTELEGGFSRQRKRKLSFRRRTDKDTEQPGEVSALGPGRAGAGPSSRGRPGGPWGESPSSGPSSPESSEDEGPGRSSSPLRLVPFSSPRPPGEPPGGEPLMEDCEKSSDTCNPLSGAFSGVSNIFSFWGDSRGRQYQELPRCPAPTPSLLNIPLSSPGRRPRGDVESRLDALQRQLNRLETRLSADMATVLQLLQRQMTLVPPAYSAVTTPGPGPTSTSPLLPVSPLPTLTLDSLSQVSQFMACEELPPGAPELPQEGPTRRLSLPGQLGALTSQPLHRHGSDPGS
# assayComment: KCNH2 potassium channel function modulators, cell-based (AID 376);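 also: 0% = buffer alone and 100% = reference blocker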
# conditionLabel: hERG-expressing cells, channel activity single-concentration screen; concentration not given here
The whole screen tested about 2,000 compounds, of which about 250 (12%) were called active. The entries come from a sample that favours actives as a whole.
Property: hERG blockade; scope: individual molecules
measureName: hERG blockade (%)

{"molecule": "Clc1ccc(CSCCc2ccncc2)cc1Cl", "experimentalResult": 14.8}
{"molecule": "O=c1[nH]c(=S)[nH]c(-c2ccccc2)c1Cc1c(O)ccc2ccccc12", "experimentalResult": -0.358}
{"molecule": "O=C(O)C(Cc1ccc(O)c([N+](=O)[O-])c1)N1C(=O)c2ccccc2C1=O (stereo not given)", "experimentalResult": -10.2}
{"molecule": "CC12CCC(=O)C=C1CCC1C2C(O)CC2(C)C(c3csc(-c4ccccc4)n3)CCC12 (stereo not given)", "experimentalResult": -6.87}
{"molecule": "O=C1c2cc([N+](=O)[O-])ccc2-c2ccc3c4ccc5c6c(ccc(c7ccc1c2c73)c64)C(=O)c1cc([N+](=O)[O-])ccc1-5", "experimentalResult": 12.2}
